For E. faecalis DRK 057, measured MIC is reported for the entries below.
Give bare numbers, in µg/mL.

Here is how some compounds turned out for MIC.
COc1ccc2nccc(CCN3CCC(NCc4ccccc4)CC3)c2n1 [Compound C1]    16
COc1ccc2nccc(CCN3CCC(NCc4ccc(I)cc4)CC3)c2n1 [Compound C8]    1
C=CCn1cc(CNC2CCN(CCc3ccnc4ccc(OC)nc34)CC2)cn1 [Compound C11]    8

Go through the items and report each one's MIC.
1. COc1ccc2nccc(CCN3CCC(NCc4ccc(CO)cc4)CC3)c2n1 [Compound C2]
2. COc1ccc2nccc(CCN3CCC(NCc4ccc(Br)cc4)CC3)c2n1 [Compound C7]
3. COc1ccc2nccc(CCN3CCC(NCc4ccc(OC(F)F)c(OC)c4)CC3)c2n1 [Compound C9]
4. COc1ccc2nccc(CCN3CCC(NCc4ccc(Cl)cc4)CC3)c2n1 [Compound C6]
5. COc1ccc2nccc(CCN3CCC(NCc4ccc(OC(F)F)c(O)c4)CC3)c2n1 [Compound C10]
6. COc1ccc2nccc(CCN3CCC(NCc4ccc(C(N)=O)cc4)CC3)c2n1 [Compound C3]
7. COc1ccc2nccc(CCN3CCC(NCc4ccc(F)cc4)CC3)c2n1 [Compound C5]
8. COc1ccc2nccc(CCN3CCC(NCc4ccc(N(C)C)cc4)CC3)c2n1 [Compound C4]

1: 8; 2: 1; 3: 16; 4: 1; 5: 4; 6: 128; 7: 8; 8: 1
